Target entity: human leukocyte elastase (Homo sapiens, UniProt P08246)
Sequence (P08246 30-267): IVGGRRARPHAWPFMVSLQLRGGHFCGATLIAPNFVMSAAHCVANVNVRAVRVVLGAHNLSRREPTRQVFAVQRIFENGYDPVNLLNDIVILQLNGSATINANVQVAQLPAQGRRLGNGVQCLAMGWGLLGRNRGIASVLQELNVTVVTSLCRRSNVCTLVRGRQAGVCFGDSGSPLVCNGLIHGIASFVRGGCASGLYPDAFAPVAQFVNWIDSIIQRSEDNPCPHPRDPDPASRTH
Assay explanation: in vitro human leukocyte elastase inhibiting activity (fluorogenic substrate, method of JP-A-2-101017 with slight modification)
Type: biochemical
Condition summary: 50% inhibitory concentration; substrate methoxysuccinyl-Ala-Ala-Pro-Val-7-amido-4-methylcoumarin; 0.2 M Tris-hydrochloride buffer (0.02 M CaCl2, 0.005% Triton X-100), pH 7.2; compound and enzyme incubated at 25°C for 20 minutes; read-out: IC50
Field: class. Source value: IC50. Ranges: bottom (below 4 nM), middle (4 nM to below 20 nM), top (20 nM or more)

| Compound | Category |
| --- | --- |
| CCCCCC(=O)Nc1ccc(C(=O)Oc2cc(Cl)cc(Cl)c2)cc1 | top |
| COC(=O)c1ccc([N+](=O)[O-])c(OC(=O)c2ccc(NC(=O)C(C)C)cc2)c1 | bottom |

Input line: Just checking, what class would you give `CC(C)C(=O)Nc1ccc(C(=O)Oc2cc(Cl)cc(OS(C)(=O)=O)c2)cc1` here?
Output line: middle

Input line: Just checking, what class would you give `CC(C)C(=O)Nc1ccc(C(=O)Oc2cccc(Br)c2)cc1` here?
Output line: top

Input line: Just checking, what class would you give `CC=CC(=O)Nc1ccc(C(=O)Oc2cc(Cl)cc(Cl)c2)cc1` here?
Output line: middle

Input line: Just checking, what class would you give `CC(C)C(=O)Nc1ccc(C(=O)Oc2cc(Cl)cc(Cl)c2Cl)cc1` here?
Output line: middle

Input line: Just checking, what class would you give CC(C(=O)O)C(C)C(=O)Nc1ccc(C(=O)Oc2cc(Cl)cc(Cl)c2)cc1 (stereo not drawn) here?
Output line: bottom

Input line: Just checking, what class would you give `CCC(=O)Oc1cc(Cl)cc(OC(=O)c2ccc(NC(=O)C(C)C)cc2)c1` here?
Output line: bottom

Input line: Just checking, what class would you give `O=C(Nc1ccc(C(=O)Oc2cc(Cl)cc(Cl)c2)cc1)OCc1ccccc1` here?
Output line: top
